Biological target: UniProt:Q9NPC2
Sequence (Q9NPC2 whole entry): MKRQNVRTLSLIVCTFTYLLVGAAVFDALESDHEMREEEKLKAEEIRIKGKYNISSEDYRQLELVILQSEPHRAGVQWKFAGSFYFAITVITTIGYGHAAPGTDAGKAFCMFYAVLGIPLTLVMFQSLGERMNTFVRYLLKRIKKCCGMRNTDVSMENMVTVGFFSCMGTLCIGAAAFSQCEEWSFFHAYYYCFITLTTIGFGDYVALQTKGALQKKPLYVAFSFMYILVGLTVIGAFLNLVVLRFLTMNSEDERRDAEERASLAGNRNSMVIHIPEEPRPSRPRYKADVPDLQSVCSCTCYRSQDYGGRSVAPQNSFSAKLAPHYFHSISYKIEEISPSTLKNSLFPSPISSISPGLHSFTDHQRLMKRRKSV
Assay: Inhibition of recombinant TASK-3 in stably transfected CHO cells (voltage-sensitive dye, FLIPR)
Type: cell-based
Conditions: 40 mM potassium chloride, comparative compounds, Table 2B
Quantity kind: IC50 (µM)

INSERT INTO assay_data (molecule, measured_target, unit_label, number) VALUES
  ('O=C(c1cnccn1)N1CCN(Cc2c(-c3ccc(Cl)cc3)nc3ccc(C4CC4)cn23)CC1 [WO 2014/187922 Example 263, reference compound]', 'UniProt:Q9NPC2', 'µM', 5.7),
  ('O=C(c1ccncc1)N1CCN(Cc2c(-c3ccc(Cl)cc3)nc3ccc(C4CC4)cn23)CC1 [WO 2014/187922 Example 196, reference compound]', 'UniProt:Q9NPC2', 'µM', 30),
  ('COc1cccc(-c2nc3ccccn3c2CN2CCN(C(=O)C3CCC3)CC2)c1 [WO 2014/187922 Example 208, reference compound]', 'UniProt:Q9NPC2', 'µM', 30),
  ('O=C(c1ccccc1Cl)N1CCN(Cc2c(-c3ccc(Cl)cc3)nc3ccc(-c4ccccc4)cn23)CC1 [WO 2014/187922 Example 64, reference compound]', 'UniProt:Q9NPC2', 'µM', 2.2),
  ('O=C(c1cccc(F)c1)N1CCN(Cc2c(-c3ccc(Cl)cc3)nc3ccc(C4CC4)cn23)CC1 [WO 2014/187922 Example 178, reference compound]', 'UniProt:Q9NPC2', 'µM', 4.8);
